experimental.target: SARS-CoV-2 M^pro (Severe acute respiratory syndrome coronavirus 2)
protocol.notes: SPE-MS M^pro inhibition assay, 11mer peptide substrate
Format: biochemical
cond: Table S1; M^pro 0.15 μM, TSAVLQ/SGFRK-NH2 2.0 μM; technical duplicates n = 2, mean ± SD; read-out: IC50 [μM] (11mer peptide)
parameter: IC50 (µM)

smiles_input=CC1(C)[C@H](C(=O)OCc2ccccc2)N2C(=O)[C@@H](NC(=O)COc3ccccc3)[C@H]2S1(=O)=O reading=8.7

---

# maps each entry to its IC50
experimental.target: SARS-CoV-2 M^pro (Severe acute respiratory syndrome coronavirus 2)
protocol.notes: biochemical
Type: biochemical
cond: Table S2; M^pro 0.15 μM, 37mer substrate peptide 2.0 μM; mean ± SD, n ≥ 2; read-out: IC50 [μM] using SPE-MS (37mer peptide)
parameter: IC50

compound="COc1ccc(COC(=O)[C@@H]2N3C(=O)[C@@H](NC(=O)COc4ccccc4)[C@H]3SC2(C)C)cc1 [Compound 19k]" reading="45.8 µM"
compound="CC1(C)S[C@@H]2[C@H](NC(=O)COc3ccccc3)C(=O)N2[C@H]1C(=O)OCc1c(F)cc(F)cc1F [Compound 19g]" reading="> 50 µM"
compound="CC1(C)S[C@@H]2[C@H](NC(=O)COc3ccccc3)C(=O)N2[C@H]1C(=O)OCc1ccc(F)cc1F [Compound 19e]" reading="> 50 µM"
compound="CC1(C)S[C@@H]2[C@H](NC(=O)COc3ccccc3)C(=O)N2[C@H]1C(=O)OCc1cc(F)cc(F)c1 [Compound 19d]" reading="> 50 µM"

Origin of measurements: paper PMC9115881
